Overview of reported logP across a group of compounds:
recorded metric: logP

1. Nc1cc(S(N)(=O)=O)ccc1S(=O)(=O)CCCO | -0.48
2. NS(=O)(=O)c1ccc(CCCO)cc1 | 0.17
3. CC(C)(O)CCSc1ccc(S(N)(=O)=O)cc1 | 1.4
4. NS(=O)(=O)c1ccc(SCCO)cc1 | 0.36
5. NS(=O)(=O)c1ccc(SCCCO)s1 | 0.85
6. NS(=O)(=O)c1ccc(SCCCO)c(Cl)c1 | 1.59
7. CC(C)(O)CCS(=O)(=O)c1ccc(S(N)(=O)=O)cc1 | -0.09

====

Conditions: 25 °C
Kindly return MET if reported solubility is no lower than 10 mM; return NOT MET if it is lower.

1. NS(=O)(=O)c1ccc(S(=O)(=O)CCCCO)cc1 | NOT MET
2. NS(=O)(=O)c1ccc(SCCCO)cc1 | NOT MET
3. NS(=O)(=O)c1ccc(SCCCCO)s1 | MET
4. NS(=O)(=O)c1ccc(S(=O)(=O)CCCO)c(F)c1 | MET
5. NS(=O)(=O)c1ccc(SCCO)c([N+](=O)[O-])c1 | NOT MET
6. NS(=O)(=O)c1ccc(CCCO)cc1 | MET
7. NS(=O)(=O)c1ccc(S(=O)(=O)CCO)cc1 | MET
8. NS(=O)(=O)c1ccc(SCCCCO)c(F)c1 | NOT MET
9. NS(=O)(=O)c1ccc(SCCCO)c([N+](=O)[O-])c1 | NOT MET
10. NS(=O)(=O)c1ccc(S(=O)(=O)CCCO)cc1 | MET
11. NS(=O)(=O)c1ccc(S(=O)(=O)CCO)c(F)c1 | MET
12. CC(C)(O)CCS(=O)(=O)c1ccc(S(N)(=O)=O)cc1 | MET
13. NS(=O)(=O)c1ccc(SCCCCO)cc1 | NOT MET

====

Settings: 25 °C
recorded metric: solubility

1. NS(=O)(=O)c1ccc(CCCCCO)cc1 | 10.7 mM
2. NS(=O)(=O)c1ccc(SCCCCCO)cc1 | 2.18 mM
3. NS(=O)(=O)c1ccc(CCCCO)cc1 | 64.1 mM
4. NS(=O)(=O)c1ccc(SCCCO)c(F)c1 | 3.39 mM
5. NS(=O)(=O)c1ccc(SCCO)c(F)c1 | 23.9 mM
6. NS(=O)(=O)c1ccc(SCCO)cc1 | 15 mM
7. CC(C)(O)CCSc1ccc(S(N)(=O)=O)cc1 | 1.45 mM

====

Class membership depends on logP alone; the intervals are b0 = under -0.3, b1 = from -0.3 up to 0.8, b2 = 0.8 and over

1. Nc1cc(S(N)(=O)=O)ccc1S(=O)(=O)CCO | b0
2. NS(=O)(=O)c1ccc(S(=O)(=O)CCCO)cc1 | b0
3. NS(=O)(=O)c1ccc(SCCO)c([N+](=O)[O-])c1 | b1
4. CC(C)CNCCS(=O)(=O)c1ccc(S(N)(=O)=O)cc1 | b1
5. COC(=O)c1cc(S(N)(=O)=O)ccc1S(=O)(=O)CCO | b0
6. NS(=O)(=O)c1ccc(S(=O)(=O)CCCO)s1 | b0
7. CC(=O)OCCCc1ccc(S(N)(=O)=O)cc1 | b2
8. NS(=O)(=O)c1ccc(S(=O)(=O)CCO)c(F)c1 | b0
9. NS(=O)(=O)c1ccc(SCCO)c(F)c1 | b1
10. NS(=O)(=O)c1ccc(S(=O)(=O)CCO)cc1 | b0
11. NS(=O)(=O)c1ccc(SCCCCO)s1 | b2
12. NS(=O)(=O)c1ccc(SCCCCCO)cc1 | b2
13. CC(=O)OCCS(=O)(=O)c1ccc(S(N)(=O)=O)s1 | b1
14. NS(=O)(=O)c1ccc(CCCCO)cc1 | b1
15. NS(=O)(=O)c1ccc(SCCCCO)cc1 | b2
16. CC(=O)OCCCS(=O)(=O)c1ccc(S(N)(=O)=O)s1 | b1
17. CC(=O)OCCCCCc1ccc(S(N)(=O)=O)cc1 | b2
18. NS(=O)(=O)c1ccc(SCCCO)c([N+](=O)[O-])c1 | b2
19. NS(=O)(=O)c1ccc(S(=O)(=O)CCCCO)c(F)c1 | b1
20. NS(=O)(=O)c1ccc(SCCCO)c(F)c1 | b2
21. COCC(=O)OCCCS(=O)(=O)c1ccc(S(N)(=O)=O)s1 | b1
22. NS(=O)(=O)c1ccc(S(=O)(=O)CCCCO)s1 | b0
23. NS(=O)(=O)c1ccc(S(=O)(=O)CCCO)c(F)c1 | b0
24. NS(=O)(=O)c1ccc(SCCCCO)c(F)c1 | b2
25. NS(=O)(=O)c1ccc(CCCCCO)cc1 | b2
26. COC(=O)c1cc(S(N)(=O)=O)ccc1SCCCO | b1
